Source of measurements: patent US11820756B2

Listing: IC50 of selected compounds
Target: human bradykinin B2 receptor (hB2R) (Homo sapiens, UniProt P30411)
Sequence (P30411 whole entry): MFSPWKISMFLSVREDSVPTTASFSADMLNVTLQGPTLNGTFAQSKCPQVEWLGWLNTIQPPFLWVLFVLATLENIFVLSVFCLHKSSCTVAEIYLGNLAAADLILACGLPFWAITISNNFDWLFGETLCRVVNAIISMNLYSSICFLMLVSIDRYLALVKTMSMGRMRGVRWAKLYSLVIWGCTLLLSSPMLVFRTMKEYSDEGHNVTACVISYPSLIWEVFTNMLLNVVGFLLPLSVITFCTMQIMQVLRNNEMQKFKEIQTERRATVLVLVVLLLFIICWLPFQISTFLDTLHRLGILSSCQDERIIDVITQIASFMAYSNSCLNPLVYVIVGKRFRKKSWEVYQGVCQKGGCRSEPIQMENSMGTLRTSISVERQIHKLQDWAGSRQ
Experiment summary: cell-based human bradykinin B2 receptor calcium mobilization (hB2R-CaM) assay
Measurement parameters: HTS041C cells, bradykinin at EC80, calcium mobilization; read-out: IC50-value towards human bradykinin B2 receptor (hB2R)
Measured metric: IC50

# Compound, Measured metric, Experimental value
rows = [
    ("Cc1cc(-n2cc(F)cn2)c2cccc(OCc3c(Cl)cc(F)cc3[C@H](C)NC(=O)[C@@H]3CCCO3)c2n1 [Compound 14]", "IC50", "≤ 50 nM"),
    ("Cc1cc(-c2ncnn2C)c2cccc(OCc3c(Cl)cc(F)cc3[C@H](C)NC(=O)c3cccnc3)c2n1 [Compound 162]", "IC50", "≤ 50 nM"),
    ("Cc1cc(-n2cc(F)cn2)c2cccc(OCc3c(Cl)cc(F)cc3[C@H](C)NC(=O)c3c(C)noc3C)c2n1 [Compound 87]", "IC50", "51 to 250 nM"),
    ("[2H][C@@](C)(NC(=O)CC(F)(F)F)c1cc(F)cc(Cl)c1COc1cccc2c(-c3ncnn3C)cc(C)nc12 [Compound 181]", "IC50", "≤ 50 nM"),
    ("Cc1cc(-n2cc(F)cn2)c2cccc(OCc3c(Cl)cc(F)cc3[C@H](C)NC(=O)c3ocnc3C)c2n1 [Compound 91]", "IC50", "≤ 50 nM"),
    ("Cc1cc(-n2cc(F)cn2)c2cccc(OCc3c(Cl)cc(F)cc3[C@H](C)NC(=O)c3cnoc3C)c2n1 [Compound 89]", "IC50", "51 to 250 nM"),
    ("CC[C@H](NC(=O)COC(F)F)c1cc(F)cc(Cl)c1COc1cccc2c(-c3ncnn3C)cc(C)nc12 [Compound 131]", "IC50", "≤ 50 nM"),
    ("Cc1cc(-c2ncnn2C)c2cccc(OCc3c(Cl)cc(F)cc3[C@H](C)NC(=O)c3ccon3)c2n1 [Compound 122]", "IC50", "≤ 50 nM"),
    ("[2H][C@@](C)(NC(=O)[C@@H](C)F)c1cc(F)cc(Cl)c1COc1cccc2c(-n3ncnc3C)cc(C)nc12 [Compound 11C]", "IC50", "≤ 50 nM"),
    ("Cc1cc(-c2[nH]ncc2C)c2cccc(OCc3c(Cl)cc(F)cc3[C@H](C)NC(=O)[C@@H](C)O)c2n1 [Compound 188]", "IC50", "≤ 50 nM"),
    ("Cc1cc(-c2[nH]ncc2C)c2cccc(OCc3c(Cl)cc(F)cc3[C@H](C)NC(=O)C(C)(C)O)c2n1 [Compound 189]", "IC50", "≤ 50 nM"),
    ("Cc1cc(-n2cc(F)cn2)c2cccc(OCc3c(Cl)cc(F)cc3[C@H](C)NC(=O)[C@H](O)CN)c2n1 [Compound 3]", "IC50", "251 to 1000 nM"),
    ("Cc1cc(-c2ncnn2C)c2cccc(OCc3c(Cl)cc(F)cc3[C@H](CO)NC(=O)c3cnco3)c2n1 [Compound 191]", "IC50", "≤ 50 nM"),
    ("Cc1cc(-c2ncnn2C)c2cccc(OCc3c(Cl)cc(F)cc3[C@H](C)NC(=O)C(C)(C)O)c2n1 [Compound 64]", "IC50", "≤ 50 nM"),
    ("Cc1cc(-n2nc(C)nc2C)c2cccc(OCc3c(Cl)cc(F)cc3[C@H](C)NC(=O)COC(F)F)c2n1 [Compound 134]", "IC50", "≤ 50 nM"),
    ("Cc1cc(-n2cc(F)cn2)c2cccc(OCc3c(Cl)cc(F)cc3[C@H](C)NC(=O)c3coc(C)n3)c2n1 [Compound 92]", "IC50", "≤ 50 nM"),
    ("Cc1cc(-c2ncnn2C)c2cccc(OCc3c(Cl)cc(F)cc3[C@H](C)NC(=O)[C@@H](C)F)c2n1 [Compound 204]", "IC50", "≤ 50 nM"),
    ("CC[C@@H](O)C(=O)N[C@@H](C)c1cc(F)cc(Cl)c1COc1cccc2c(-n3cc(F)cn3)cc(C)nc12 [Compound 24]", "IC50", "51 to 250 nM"),
    ("Cc1cc(-c2ncnn2C)c2cccc(OCc3c(Cl)cc(F)cc3[C@H](C)NC(=O)c3cc(C)n(C)n3)c2n1 [Compound 129]", "IC50", "≤ 50 nM"),
    ("Cc1cc(-c2ncnn2C)c2cccc(OCc3c(Cl)cc(F)cc3[C@H](C)NC(=O)COC(F)(F)F)c2n1 [Compound 116]", "IC50", "≤ 50 nM"),
    ("Cc1cc(-n2nccn2)c2cccc(OCc3c(Cl)cc(F)cc3[C@H](C)NC(=O)C(C)(C)O)c2n1 [Compound 28]", "IC50", "51 to 250 nM"),
    ("[2H][C@@](C)(NC(=O)[C@H](C)F)c1cc(F)cc(Cl)c1COc1cccc2c(-c3ncnn3C)cc(C)nc12 [Compound 213]", "IC50", "≤ 50 nM"),
    ("CC[C@@H](O)C(=O)N[C@@H](C)c1cc(F)cc(Cl)c1COc1cccc2c(-n3ncnc3C)cc(C)nc12 [Compound 99]", "IC50", "51 to 250 nM"),
    ("Cc1cc(-n2cc(F)cn2)c2cccc(OCc3c(Cl)cc(F)cc3[C@H](C)NC(=O)[C@H](C)O)c2n1 [Compound 13]", "IC50", "251 to 1000 nM"),
    ("CC[C@H](NC(=O)COC(F)F)c1cc(F)cc(Cl)c1COc1cccc2c(-n3ncnc3C)cc(C)nc12 [Compound 166]", "IC50", "≤ 50 nM"),
    ("Cc1cc(-n2cc(F)cn2)c2cccc(OCc3c(Cl)cc(F)cc3[C@H](C)NC(=O)[C@@](C)(O)C(F)(F)F)c2n1 [Compound 52]", "IC50", "251 to 1000 nM"),
    ("Cc1cc(-n2cc(F)cn2)c2cccc(OCc3c(Cl)cc(F)cc3[C@H](C)NC(=O)CO)c2n1 [Compound 49]", "IC50", "51 to 250 nM"),
    ("CO[C@@H](C)C(=O)N[C@@H](C)c1cc(F)cc(Cl)c1COc1cccc2c(-n3nccn3)cc(C)nc12 [Compound 29]", "IC50", "≤ 50 nM"),
]
